# system_name: PRMT1 (Homo sapiens)
# Sequence (Q99873 with tags, fused parts or gaps): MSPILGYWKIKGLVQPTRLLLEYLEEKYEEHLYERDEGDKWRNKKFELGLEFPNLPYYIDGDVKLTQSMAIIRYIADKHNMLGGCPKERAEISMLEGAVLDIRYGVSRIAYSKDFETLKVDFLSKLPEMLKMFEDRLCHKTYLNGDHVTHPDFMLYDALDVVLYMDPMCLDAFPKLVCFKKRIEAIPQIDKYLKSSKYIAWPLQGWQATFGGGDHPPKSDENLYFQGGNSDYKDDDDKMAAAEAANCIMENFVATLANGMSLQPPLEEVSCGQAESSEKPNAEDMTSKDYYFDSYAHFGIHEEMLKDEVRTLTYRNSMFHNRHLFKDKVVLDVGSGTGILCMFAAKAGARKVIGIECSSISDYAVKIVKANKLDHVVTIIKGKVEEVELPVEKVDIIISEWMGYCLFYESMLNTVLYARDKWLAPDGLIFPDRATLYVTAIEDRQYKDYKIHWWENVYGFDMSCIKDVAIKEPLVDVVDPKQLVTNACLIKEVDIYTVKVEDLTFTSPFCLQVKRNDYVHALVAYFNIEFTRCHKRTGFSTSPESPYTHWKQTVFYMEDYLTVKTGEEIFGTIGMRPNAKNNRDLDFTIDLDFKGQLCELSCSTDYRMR
pIC50: −log10 of the molar value.
observable: pIC50

Below, each entry is followed by its recorded pIC50 result.
smiles_structure: CN(CCN)Cc1c[nH]nc1-c1ccco1
system_name: PRMT1 (Homo sapiens)
pIC50: 6.00 to 7.00
--
smiles_structure: CN(CCN)Cc1c[nH]nc1-c1ccc2ncnn2c1
system_name: PRMT1 (Homo sapiens)
pIC50: ≥ 7.00
--
smiles_structure: CN(CCN)Cc1c[nH]nc1-c1cnn(-c2ccccc2)c1
system_name: PRMT1 (Homo sapiens)
pIC50: ≥ 7.00
--
smiles_structure: COc1ncc(-c2n[nH]cc2CN(C)CCN)cn1
system_name: PRMT1 (Homo sapiens)
pIC50: 6.00 to 7.00
--
smiles_structure: CN(CCN)Cc1c[nH]nc1-c1ccsc1
system_name: PRMT1 (Homo sapiens)
pIC50: 6.00 to 7.00

Lookup: Jot down pIC50 (PRMT1 (Homo sapiens)) of CN(CCN)Cc1c[nH]nc1-c1ccc2cnn(C)c2c1 .
Found: ≥ 7.00

Lookup: Jot down pIC50 (PRMT1 (Homo sapiens)) of CCn1cc(-c2n[nH]cc2CN(C)CCN)cn1 .
Found: ≥ 7.00

Lookup: Jot down pIC50 (PRMT1 (Homo sapiens)) of CC(C)n1cc(-c2n[nH]cc2CN(C)CCN)cn1 .
Found: ≥ 7.00

Lookup: Jot down pIC50 (PRMT1 (Homo sapiens)) of CN(CCN)Cc1c[nH]nc1-c1ccc2scnc2c1 .
Found: ≥ 7.00

Lookup: Jot down pIC50 (PRMT1 (Homo sapiens)) of CN(CCN)Cc1c[nH]nc1-c1cnc(C2CC2)nc1 .
Found: 6.00 to 7.00

---

Record: IC50 reported on PRMT3 (Homo sapiens, UniProt O60678).
Sequence (O60678 with tags, fused parts or gaps): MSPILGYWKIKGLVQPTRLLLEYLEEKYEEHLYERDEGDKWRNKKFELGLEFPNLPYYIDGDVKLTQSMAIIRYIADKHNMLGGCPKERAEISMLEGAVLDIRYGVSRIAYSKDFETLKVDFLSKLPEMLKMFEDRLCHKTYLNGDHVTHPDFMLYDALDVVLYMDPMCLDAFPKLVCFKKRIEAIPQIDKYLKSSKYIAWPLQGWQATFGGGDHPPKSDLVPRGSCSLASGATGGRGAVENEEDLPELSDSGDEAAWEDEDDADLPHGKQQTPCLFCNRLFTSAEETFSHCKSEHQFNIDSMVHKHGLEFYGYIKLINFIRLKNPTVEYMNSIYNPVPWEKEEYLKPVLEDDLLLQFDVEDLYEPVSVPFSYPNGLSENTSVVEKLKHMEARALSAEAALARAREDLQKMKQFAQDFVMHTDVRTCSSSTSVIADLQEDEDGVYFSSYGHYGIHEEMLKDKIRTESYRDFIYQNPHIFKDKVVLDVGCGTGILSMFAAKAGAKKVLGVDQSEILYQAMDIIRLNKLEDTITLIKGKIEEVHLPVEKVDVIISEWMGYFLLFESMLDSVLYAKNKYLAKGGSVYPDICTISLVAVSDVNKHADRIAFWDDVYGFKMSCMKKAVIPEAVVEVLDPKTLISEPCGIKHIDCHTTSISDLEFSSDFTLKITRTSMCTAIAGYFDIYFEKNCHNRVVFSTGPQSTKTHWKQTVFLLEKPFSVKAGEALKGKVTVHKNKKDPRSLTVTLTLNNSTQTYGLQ

Below, each entry is followed by its recorded IC50 result.
molecule: Cc1noc(C)c1-c1n[nH]cc1CN(C)CCN [Compound 10]
system_name: PRMT3 (Homo sapiens, UniProt O60678)
observable: IC50
recorded_value: ≥ 10 µM
//
molecule: CN(CCN)Cc1c[nH]nc1-c1ccco1 [Compound 6]
system_name: PRMT3 (Homo sapiens, UniProt O60678)
observable: IC50
recorded_value: 3.01 to 10 µM
//
molecule: CN(CCN)Cc1c[nH]nc1-c1cnn(CCO)c1 [Compound 18]
system_name: PRMT3 (Homo sapiens, UniProt O60678)
observable: IC50
recorded_value: ≥ 10 µM
//
molecule: CN(CCN)Cc1c[nH]nc1-c1ccc2nccn2c1 [Compound 21]
system_name: PRMT3 (Homo sapiens, UniProt O60678)
observable: IC50
recorded_value: 3.01 to 10 µM

Lookup: Read the entry CN(CCN)Cc1c[nH]nc1-c1ccc2ncnn2c1 [Compound 20] and write its reported IC50.
Found: 3.01 to 10 µM

---

# system_name: PRMT8 (Homo sapiens, UniProt Q9NR22)
# Construct: Full-length human PRMT8 (NM_019854.4) isoform 1 transcript clone
# Sequence (Q9NR22 whole entry, canonical isoform): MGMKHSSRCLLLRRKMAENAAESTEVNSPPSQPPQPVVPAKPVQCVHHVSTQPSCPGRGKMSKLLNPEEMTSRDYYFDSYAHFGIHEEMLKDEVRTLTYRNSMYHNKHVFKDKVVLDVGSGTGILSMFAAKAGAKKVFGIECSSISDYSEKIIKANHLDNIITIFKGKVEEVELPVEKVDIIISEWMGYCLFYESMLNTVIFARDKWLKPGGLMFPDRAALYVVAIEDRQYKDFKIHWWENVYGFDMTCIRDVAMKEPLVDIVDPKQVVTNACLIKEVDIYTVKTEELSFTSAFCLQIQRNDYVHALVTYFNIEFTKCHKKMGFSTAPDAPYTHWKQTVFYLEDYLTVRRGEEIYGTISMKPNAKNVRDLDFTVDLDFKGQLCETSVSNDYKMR
# assay_explanation: PRMT8 Biochemical Assay (3H-SAM Flashplate, peptide substrate)
# measurement_parameters: 30 min preincubation, room temperature
Measured IC50 of individual entries

Below, each entry is followed by its recorded IC50 result.
smiles_structure: CN(CCN)Cc1c[nH]nc1-c1cnc2[nH]ccc2c1
IC50: 101 to 1000 nM
--
smiles_structure: CN(CCN)Cc1c[nH]nc1-c1cncnc1
IC50: 1010 to 3000 nM
--
smiles_structure: CN(CCN)Cc1c[nH]nc1-c1cnn(-c2ccccc2)c1
IC50: 101 to 1000 nM

Lookup: Read the entry CCn1cc(-c2n[nH]cc2CN(C)CCN)cn1 and write its reported IC50.
Found: 101 to 1000 nM

---

# system_name: CARM1 (PRMT4) (Homo sapiens)
# Sequence (Q86X55 1-585 isoform Q86X55-1): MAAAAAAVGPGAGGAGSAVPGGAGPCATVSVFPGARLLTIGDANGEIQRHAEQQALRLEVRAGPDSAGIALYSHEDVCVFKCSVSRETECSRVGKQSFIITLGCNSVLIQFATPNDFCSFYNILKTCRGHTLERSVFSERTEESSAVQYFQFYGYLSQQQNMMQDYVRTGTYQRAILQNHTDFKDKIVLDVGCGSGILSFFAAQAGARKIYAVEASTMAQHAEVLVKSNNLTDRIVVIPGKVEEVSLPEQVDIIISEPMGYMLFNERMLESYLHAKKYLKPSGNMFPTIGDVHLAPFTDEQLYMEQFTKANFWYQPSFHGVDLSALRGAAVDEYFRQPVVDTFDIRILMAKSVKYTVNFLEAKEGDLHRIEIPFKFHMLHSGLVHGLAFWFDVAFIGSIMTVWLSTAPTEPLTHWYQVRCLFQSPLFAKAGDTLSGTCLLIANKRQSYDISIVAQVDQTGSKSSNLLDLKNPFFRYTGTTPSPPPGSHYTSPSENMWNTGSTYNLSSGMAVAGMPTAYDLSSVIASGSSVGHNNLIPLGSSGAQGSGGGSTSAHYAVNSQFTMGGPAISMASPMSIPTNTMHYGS
observable: IC50

compound: COc1ncc(-c2n[nH]cc2CN(C)CCN)cn1 [Compound 11]
recorded_value: ≥ 10 µM

Lookup: Read the entry CN(CCN)Cc1c[nH]nc1-c1cncnc1 [Compound 4] and write its reported IC50.
Found: ≥ 10 µM

Lookup: Read the entry CN(CCN)Cc1c[nH]nc1-c1cccs1 [Compound 5] and write its reported IC50.
Found: ≥ 10 µM

Lookup: Read the entry Cc1noc(C)c1-c1n[nH]cc1CN(C)CCN [Compound 10] and write its reported IC50.
Found: ≥ 10 µM

---

Measured pIC50 of individual entries
# system_name: PRMT8 (Homo sapiens, UniProt Q9NR22)
# Construct: Full-length human PRMT8 (NM_019854.4) isoform 1 transcript clone
# assay_explanation: PRMT8 Biochemical Assay (3H-SAM Flashplate, peptide substrate)
# measurement_parameters: 30 min preincubation, room temperature
pIC50: −log10 of the molar value.

Below, each entry is followed by its recorded pIC50 result.
smiles_structure: COc1ncc(-c2n[nH]cc2CN(C)CCN)cn1
pIC50: 5.52 to 6.00
--
smiles_structure: CN(CCN)Cc1c[nH]nc1-c1ccc[nH]1
pIC50: 5.00 to 5.52
--
smiles_structure: CN(CCN)Cc1c[nH]nc1-c1cnc(C2CC2)nc1
pIC50: 5.52 to 6.00
--
smiles_structure: CN(CCN)Cc1c[nH]nc1-c1ccc2ncnn2c1
pIC50: 5.52 to 6.00
--
smiles_structure: CN(CCN)Cc1c[nH]nc1-c1cnn(CCO)c1
pIC50: 5.52 to 6.00
--
smiles_structure: CC(C)n1cc(-c2n[nH]cc2CN(C)CCN)cn1
pIC50: 6.00 to 7.00

Lookup: Read the entry CN(CCN)Cc1c[nH]nc1-c1ccco1 and write its reported pIC50.
Found: 5.00 to 5.52

---

Measured pIC50 of individual entries
# system_name: PRMT1 (Homo sapiens)
pIC50: −log10 of the molar value.

smiles_structure: CN(CCN)Cc1c[nH]nc1-c1cnn(C)c1
pIC50: 6.00 to 7.00
//
smiles_structure: CN(CCN)Cc1c[nH]nc1-c1cccs1
pIC50: 6.00 to 7.00

Lookup: Jot down pIC50 (PRMT1 (Homo sapiens)) of CN(CCN)Cc1c[nH]nc1-c1ccnn1C .
Found: 5.52 to 6.00

---

# system_name: PRMT8 (Homo sapiens, UniProt Q9NR22)
# Construct: Full-length human PRMT8 (NM_019854.4) isoform 1 transcript clone
# assay_explanation: PRMT8 Biochemical Assay (3H-SAM Flashplate, peptide substrate)
# measurement_parameters: 30 min preincubation, room temperature
observable: IC50

Below, each entry is followed by its recorded IC50 result.
smiles_structure: CN(CCN)Cc1c[nH]nc1-c1cccc2[nH]ncc12
recorded_value: 3010 to 10000 nM
--
smiles_structure: CN(CCN)Cc1c[nH]nc1-c1ccsc1
recorded_value: 1010 to 3000 nM
--
smiles_structure: CN(CCN)Cc1c[nH]nc1-c1cc[nH]n1
recorded_value: ≥ 10000 nM

Lookup: Read the entry CN(CCN)Cc1c[nH]nc1-c1ccc2scnc2c1 and write its reported IC50.
Found: 101 to 1000 nM

Lookup: Read the entry CN(CCN)Cc1c[nH]nc1-c1ccc2[nH]ncc2c1 and write its reported IC50.
Found: 101 to 1000 nM
